Target: CIB1 and αIIb interaction (GST-CIB1 : F-αIIb peptide) (Homo sapiens)
Construct: made in house; host or cells: BL-21 plus RIL cells (E. coli)
Sequence (Q99828 1-191): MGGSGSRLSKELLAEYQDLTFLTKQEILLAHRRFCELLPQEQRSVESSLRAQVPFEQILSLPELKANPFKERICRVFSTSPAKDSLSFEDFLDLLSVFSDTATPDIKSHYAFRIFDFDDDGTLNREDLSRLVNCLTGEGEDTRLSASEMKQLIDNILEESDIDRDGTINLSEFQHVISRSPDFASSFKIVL
Test: FP assay, 384-well format (screen)
Assay type: binding
Parameters: concentration or dose not given beside the values
Conditions: F-αIIb peptide
Lab note: compare 384-well SCREEN Efficacy (%) against 40%. Equal or greater, write Satisfied. Smaller, write Not satisfied.

| Compound | Category |
| --- | --- |
| Cc1ccc(-c2cc(-c3nn(-c4nc(C(=O)O)cs4)c(CC4CC4)c3Cc3ccc(S(N)(=O)=O)c(F)c3)ccc2F)o1 | Satisfied |
| COc1cc(/C=C2/N=C(c3ccccc3)OC2=O)c(F)cc1OCc1ccccc1 | Not satisfied |
| N[C@@H](Cc1ccc(Oc2cc(I)c(O)c(I)c2)c(I)c1)C(=O)O | Satisfied |
| O=C(O)C1=CC(=C(c2ccc(O)c(C(=O)O)c2)c2ccc(O)c(C(=O)O)c2)C=CC1=O | Satisfied |
| O=[N+]([O-])c1cnc(Sc2nnc(O)n2-c2ccc3c(c2)OCCO3)s1 | Satisfied |
| Cc1cc(SCc2sc(-c3ccc(Cl)c(Cl)c3)nc2C)ccc1OCc1nnn[nH]1.O=C(O)C(F)(F)F | Satisfied |
| Cc1ccc(S(=O)(=O)Nc2cnccc2C(=O)Nc2nc(-c3cccc(C)c3)cs2)cc1.O=C(O)C(F)(F)F | Satisfied |
| CC(C)(C)c1ccc(SC2=NS(=O)(=O)c3ccccc32)cc1 | Not satisfied |
| Cc1ccc(S(=O)(=O)Nc2nn3c(=O)c4ccccc4nc3s2)cc1C.O=C(O)C(F)(F)F | Not satisfied |
| N#Cc1cnc(NS(=O)(=O)c2ccc(NC(=O)Cc3ccc(Cl)c(Cl)c3)cc2)s1.O=C(O)C(F)(F)F | Satisfied |
| Nc1c(Cc2ccc(S(N)(=O)=O)cc2)c(-c2cccc(-c3ccccc3)c2)nn1-c1nc(C(=O)O)cs1.O=C(O)C(F)(F)F | Satisfied |
| COc1ccc2c(c1)C=C1Cn3c-2c(C2CCCCC2)c2ccc(cc23)C(=O)NS(=O)(=O)N(C)CCOCCN(C)C1=O | Not satisfied |
| CC[S+]([O-])c1nc(-c2cccc(OCc3ccccc3)c2)cc(C(F)(F)F)n1 (centres unmarked) | Satisfied |
| O=C(Nc1nc(-c2ccccc2)cs1)c1ccncc1NS(=O)(=O)c1ccc2ccccc2c1.O=C(O)C(F)(F)F | Satisfied |
| Cc1csc(CNc2ncnc3ccc(-c4ccc(CO)o4)cc23)n1.O=C(O)C(F)(F)F | Satisfied |
| Cc1ccc(S(=O)(=O)Nc2cnccc2C(=O)Nc2nc(-c3ccc(Cl)cc3)cs2)cc1.O=C(O)C(F)(F)F | Satisfied |
| OCCN(CCO)c1nc(N2CCCCC2)c2nc(N(CCO)CCO)nc(N3CCCCC3)c2n1 | Satisfied |
| O=C(Nc1nc(-c2ccccc2)cs1)c1ccncc1NS(=O)(=O)c1cccc2cccnc12.O=C(O)C(F)(F)F | Not satisfied |
| Cc1cc(NS(=O)(=O)c2ccc(NCCc3ccc(Cl)c(Cl)c3)cc2)no1.O=C(O)C(F)(F)F | Satisfied |
| O=C(O)C(F)(F)F.O=S(=O)(Nc1nc2n(n1)C(c1ccccc1)C=C(c1ccc(Cl)cc1)N2)c1ccccc1 (centres unmarked) | Satisfied |
| COC(=O)c1ccc2c(c1)S(=O)(=O)N=C2Sc1cc(C)ccc1C | Satisfied |
| COc1ccc(C(=O)Nc2nc(-c3ccccc3)cs2)c(NS(=O)(=O)c2ccc(C)cc2)c1.O=C(O)C(F)(F)F | Not satisfied |
| O=Cc1c(-c2ccccc2)no[n+]1[O-] | Satisfied |
| Cc1ccc(-c2csc(NC(=O)c3ccncc3NS(=O)(=O)c3ccc(C)cc3)n2)cc1.O=C(O)C(F)(F)F | Satisfied |
| Cc1cc(=O)oc2cc(SC3=NS(=O)(=O)c4ccccc43)ccc12 | Satisfied |
| CC(O)c1ccc(-c2ccc3ncnc(NCc4nccs4)c3c2)o1.O=C(O)C(F)(F)F (centres unmarked) | Satisfied |
| COc1ccc(CNC(=O)c2nc(S(=O)(=O)Cc3ccccc3)ncc2Cl)cc1.O=C(O)C(F)(F)F | Satisfied |
| Cc1ccc(S(=O)(=O)Nc2cnccc2C(=O)Nc2nc(-c3ccc4c(c3)CCCC4)cs2)cc1.O=C(O)C(F)(F)F | Not satisfied |

---

Here the recorded CONFIRMATORY SCREEN Curve Class is given for each entry.
Molecular target: CIB1 and αIIb interaction (CIB1-GST : F-αIIb peptide) (Homo sapiens, UniProt Q99828)
Construct: made in house; host or cells: BL-21 plus RIL cells (E. coli)
Sequence (Q99828 1-191): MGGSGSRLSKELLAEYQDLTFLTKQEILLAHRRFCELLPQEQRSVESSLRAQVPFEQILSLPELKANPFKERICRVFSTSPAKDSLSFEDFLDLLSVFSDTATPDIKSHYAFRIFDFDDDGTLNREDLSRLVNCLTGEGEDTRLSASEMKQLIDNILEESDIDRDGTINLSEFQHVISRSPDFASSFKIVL
Assay: FP assay, 1536-well qHTS format (primary and confirmatory screen)
Assay type: binding
Conditions: confirmatory screen, qHTS curve class; negative sign = inhibitory curve
Quantity kind: CONFIRMATORY SCREEN Curve Class

| Compound | Target or test system | Value reported |
| --- | --- | --- |
| CCCCCCCCOc1ccccc1C(=O)Nc1ccc(C(=O)OCC[N+](C)(CC)CC)cc1.[Br-] | CIB1 and αIIb interaction (CIB1-GST : F-αIIb peptide) (Homo sapiens, UniProt Q99828) | -3 |
| CCc1nnc(NS(=O)(=O)c2ccc(NC(=S)NC(=O)/C=C/c3ccc(F)cc3)cc2)s1 | CIB1 and αIIb interaction (CIB1-GST : F-αIIb peptide) (Homo sapiens, UniProt Q99828) | -1.2 |
| NS(=O)(=O)c1ccc(Cc2c(-c3cccc(-c4ccccc4F)c3)nn(-c3nc(C(=O)O)cs3)c2O)cc1.O=C(O)C(F)(F)F | CIB1 and αIIb interaction (CIB1-GST : F-αIIb peptide) (Homo sapiens, UniProt Q99828) | -1.2 |
| Cc1ccccc1S(=O)(=O)Nc1cnccc1C(=O)Nc1nc(-c2ccccc2)cs1.O=C(O)C(F)(F)F | CIB1 and αIIb interaction (CIB1-GST : F-αIIb peptide) (Homo sapiens, UniProt Q99828) | -1.2 |
| CCC(=O)NC(c1cccs1)c1cc([N+](=O)[O-])c2cccnc2c1O (centres unmarked) | CIB1 and αIIb interaction (CIB1-GST : F-αIIb peptide) (Homo sapiens, UniProt Q99828) | -3 |
| Cc1ccc(-c2cc(-c3nn(-c4nc(C(=O)O)cs4)c(CC4CC4)c3Cc3ccc(S(N)(=O)=O)c(F)c3)ccc2F)o1 | CIB1 and αIIb interaction (CIB1-GST : F-αIIb peptide) (Homo sapiens, UniProt Q99828) | -3 |
| COC(=O)[C@]12CCC(C)(C)C[C@H]1[C@H]1C(=O)C=C3[C@@]4(C)C=C(C#N)C(=O)C(C)(C)[C@@H]4CC[C@@]3(C)[C@]1(C)CC2 | CIB1 and αIIb interaction (CIB1-GST : F-αIIb peptide) (Homo sapiens, UniProt Q99828) | -1.2 |
| Cn1sc(=O)n(Cc2ccccc2)c1=O | CIB1 and αIIb interaction (CIB1-GST : F-αIIb peptide) (Homo sapiens, UniProt Q99828) | -1.2 |
| CCOC(=O)c1c(NC(=O)C2CC(Cl)=CCC2C(=O)O)sc2c1CCCCC2.O=C(O)C(F)(F)F (centres unmarked) | CIB1 and αIIb interaction (CIB1-GST : F-αIIb peptide) (Homo sapiens, UniProt Q99828) | -2.2 |
| COc1ccc2c(c1)C=C1Cn3c-2c(C2CCCCC2)c2ccc(cc23)C(=O)NS(=O)(=O)N(C)CCOCCN(C)C1=O | CIB1 and αIIb interaction (CIB1-GST : F-αIIb peptide) (Homo sapiens, UniProt Q99828) | -2.2 |
| CCOC(=O)c1nnc(NS(=O)(=O)c2ccc(NC(=O)Cc3ccc(Cl)c(Cl)c3)cc2)s1.O=C(O)C(F)(F)F | CIB1 and αIIb interaction (CIB1-GST : F-αIIb peptide) (Homo sapiens, UniProt Q99828) | -1.2 |
| O=C(Cc1ccc(Cl)c(Cl)c1)Nc1ccc(S(=O)(=O)Nc2nncs2)cc1.O=C(O)C(F)(F)F | CIB1 and αIIb interaction (CIB1-GST : F-αIIb peptide) (Homo sapiens, UniProt Q99828) | -1.4 |
| N[C@@H](Cc1ccc(Oc2cc(I)c(O)c(I)c2)c(I)c1)C(=O)O | CIB1 and αIIb interaction (CIB1-GST : F-αIIb peptide) (Homo sapiens, UniProt Q99828) | -1.2 |
| O=C(CN(c1cccc(Br)c1)S(=O)(=O)c1ccccc1)NN=CC1=CC(=[N+]([O-])O)C=CC1=O.O=C(O)C(F)(F)F | CIB1 and αIIb interaction (CIB1-GST : F-αIIb peptide) (Homo sapiens, UniProt Q99828) | -2.1 |
